property label: melting point

>>> observed_measurement("O=C(Nc1ccc(F)cc1)Nc1ccc2[nH]ncc2c1 [Example 67]")
"> 250 °C"
>>> observed_measurement("Cc1nc2cc(NC(=O)Nc3ccc(C(C)C)cc3)ccc2s1 [Example 39]")
"208 to 210 °C"
>>> observed_measurement("O=C(Nc1ccc(Cl)c(C(F)(F)F)c1)Nc1cccc2[nH]ccc12 [Example 8]")
"230 to 233 °C"
>>> observed_measurement("Cc1nc2c(NC(=O)Nc3ccc(Oc4ccccc4)cc3)cccc2[nH]1 [Example 54]")
"223 to 225 °C"
>>> observed_measurement("O=C(Nc1ccc2ccccc2c1)Nc1cccc2[nH]ccc12 [Example 88]")
"242 to 243 °C"

Source: patent US20050119304A1
